test: chemical genetic growth profiling, strain panel (AID 1159580);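 also: tested at 20 µM; growth read once vehicle control cultures reached saturation at 30 °C; 1 = growth at the plate median or of vehicle wells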; conditions: S. cerevisiae deletion strains, growth OD, locus YLL041C, strain sdh2, stronger effect = lower value
Among all 5,500 compounds or so, about 2,000 (36%) were called active. About 18% were inconclusive and are not listed. The list shows a part of the results.
Measured normalized growth of individual entries
The answer should be written as a number, with no unit following it.

{"Compound": "C[C@]12CCC3C(CC[C@H]4C[C@H](OS(=O)(=O)O)CC[C@]34C)C1CCC2=O (stereo partly drawn)", "normalized growth": 1.05}

Moving on to another compound below.
Ask: I have this compound here, Cc1c(NC(=O)c2cccnc2)c(=O)n(-c2ccccc2)n1C , and I need its recorded normalized growth.
Result: 0.996

* * *

test: chemical genetic growth profiling, strain panel (AID 1159580); settings: S. cerevisiae deletion strains, growth OD, locus YGR040W, strain KSS1
Among all 5,500 compounds or so, about 2,000 (36%) were called active. Another 18% or so got no clear call; they are omitted. No stated cut-off is given here; in the data, active means normalized growth mostly below about 0.91 (no sharp cut-off); inconclusive means no clear call, values can overlap the other calls; inactive means mostly above about 0.92. The list shows a part of the results.
Result category, one only: active, inactive

Take a look at these entries with their results.
{"Molecule": "FC(F)(F)c1cc(-c2ccc(Cl)cc2)n[nH]1", "Answer Label": "inactive"}
{"Molecule": "CC(C)(C)c1ccc(C(=O)NNC(=S)Nc2ccc(Cl)cc2)cc1", "Answer Label": "inactive"}
{"Molecule": "COc1cc(N2C(=O)C=CC2=O)cc(OC)c1OC", "Answer Label": "active"}

Ask: Which outcome did this test record for the molecule O=C(Nc1cc2c(s1)-c1cc(Cl)ccc1SC2)Oc1ccccc1 ?
Result: inactive

Ask: Which outcome did this test record for the molecule CN1c2ccccc2C(C)(C)C12C=Cc1cc(O)ccc1O2 (stereo not given) ?
Result: inactive

Ask: Which outcome did this test record for the molecule O=c1c(-c2ccccc2)c(O)c2cccc3c4ccccc4n1c23 ?
Result: active

* * *

assay: chemical genetic growth profiling, strain panel (AID 1159580);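 also: tested at 20 µM; growth read once vehicle control cultures reached saturation at 30 °C; 1 = growth at the plate median or of vehicle wells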; conditions: S. cerevisiae deletion strains, growth OD, locus YNL322C, strain KRE1
Hit rate of the full screen: of about 5,500 compounds, about 2,000 (36%) were called active. Another 18% or so got no clear call; they are omitted. No stated cut-off is given here; in the data, active means normalized growth mostly below about 0.91 (no sharp cut-off); inconclusive means no clear call, values can overlap the other calls; inactive means mostly above about 0.92. This is one part of the list.
Result category, one only: active, inactive

{"Mol": "Cc1ccc(OCc2nnc(SCC(=O)c3ccc(F)cc3)n2-c2ccccc2)c2c1CCC2", "Answer Label": "inactive"}
{"Mol": "COc1cccc(OC)c1C(=O)N[C@@H]1C(=O)N2[C@@H]1SC(C)(C)[C@@H]2C(=O)O", "Answer Label": "inactive"}
{"Mol": "Cc1onc(-c2c(Cl)cccc2Cl)c1C(=O)N[C@@H]1C(=O)N2[C@@H]1SC(C)(C)[C@@H]2C(=O)O", "Answer Label": "inactive"}
{"Mol": "O=c1cc(C(F)(F)F)[nH]c2c(Cl)cccc12", "Answer Label": "active"}

Attention now shifts to the item below.
Ask: Which outcome did this test record for the molecule C=CCn1c(COc2c(Br)cc(C)c3c2CCC3)n[nH]c1=S ?
Result: inactive

* * *

assay: chemical genetic growth profiling, strain panel (AID 1159580);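 also: tested at 20 µM; growth read once vehicle control cultures reached saturation at 30 °C; 1 = growth at the plate median or of vehicle wells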; settings: S. cerevisiae deletion strains, growth OD, locus YJL134W, strain LCB3, stronger effect = lower value
Hit rate of the full screen: of about 5,500 compounds, about 2,000 (36%) were called active. Roughly 18% stayed inconclusive and do not appear here. Some of the results follow. Where a SMILES comes first, the peptide text is derived from it. Bridges are numbered along the chain shown (N, C = ends). Side-chain parts run from the residue outwards. [ ]: non-standard residue; d: D form. The star is where a group is joined. Octanoyl(6-Me) = CCC(C)CCCCC(=O)*; X1 = CCC(C)C(N)C1=NC(C(=O)*)CS1; Orn = NCCC[CH](N)C(=O)O; Dab = NCC[CH](N)C(=O)O
Measured normalized growth of individual entries
The answer should be written as a number, with no unit following it.

{"Compound": "CCNc1nc(Cl)nc(NCC)n1", "Numeric Readout": 0.993}
{"Compound": "CCCCc1nc(Cl)c(CO)n1Cc1ccc(-c2ccccc2-c2nn[nH]n2)cc1", "Numeric Readout": 1}
{"Compound": "C[C@]12CCC(=O)C=C1CCC1C2[C@@H](O)C[C@@]2(C)C1CC[C@]2(O)C(=O)COC(=O)CCC(=O)O (some centres undefined)", "Numeric Readout": 1.01}
{"Compound": "COc1ccc2c(c1)[C@]13CCCC[C@H]1[C@H](C2)N(C)CC3", "Numeric Readout": 0.999}
{"Compound": "COc1c2ccoc2cc2oc(C)cc(=O)c12", "Numeric Readout": 0.985}

Ask: I have this compound here, CCC(C)CCCCC(=O)NC(CCN)C(=O)NC(C(=O)NC(CCN)C(=O)NC1CCNC(=O)C(C(C)O)NC(=O)C(CCN)NC(=O)C(CCN)NC(=O)C(CC(C)C)NC(=O)C(Cc2ccccc2)NC(=O)C(CCN)NC1=O)C(C)O (centres undefined) ({Octanoyl(6-Me)}-[Dab]T[Dab][Dab][Dab]FL[Dab][Dab]T; lactam 4-C; configuration not given here) , and I need its recorded normalized growth.
Result: 1

Ask: I have this compound here, NC(=O)N1c2ccccc2C=Cc2ccccc21 , and I need its recorded normalized growth.
Result: 1.02

Ask: I have this compound here, CC(=O)OCC1=C(C(=O)O)N2C(=O)[C@@H](NC(=O)CCCC(N)C(=O)O)C2SC1 (some centres undefined) , and I need its recorded normalized growth.
Result: 1

Ask: I have this compound here, OCCN1CCN(CCCN2c3ccccc3Sc3ccc(C(F)(F)F)cc32)CC1 , and I need its recorded normalized growth.
Result: 0.997

Ask: I have this compound here, CN1CCN(CCCN2c3ccccc3Sc3ccc(C(F)(F)F)cc32)CC1 , and I need its recorded normalized growth.
Result: 0.108

Ask: I have this compound here, O=C(OC[C@H]1O[C@H](OC(=O)c2cc(O)c(O)c(OC(=O)c3cc(O)c(O)c(O)c3)c2)[C@H](OC(=O)c2cc(O)c(O)c(OC(=O)c3cc(O)c(O)c(O)c3)c2)[C@@H](OC(=O)c2cc(O)c(O)c(OC(=O)c3cc(O)c(O)c(O)c3)c2)[C@@H]1OC(=O)c1cc(O)c(O)c(OC(=O)c2cc(O)c(O)c(O)c2)c1)c1cc(O)c(O)c(OC(=O)c2cc(O)c(O)c(O)c2)c1 , and I need its recorded normalized growth.
Result: 0.0741

Ask: I have this compound here, NC[C@H]1O[C@H](O[C@H]2C(O[C@@H]3O[C@H](CO)[C@@H](O)[C@H]3O)[C@@H](O)[C@H](N)C[C@@H]2N)[C@H](N)[C@@H](O)[C@@H]1O (some centres undefined) , and I need its recorded normalized growth.
Result: 0.992

Ask: I have this compound here, COc1c2occc2c(OC)c2c(=O)cc(C)oc12 , and I need its recorded normalized growth.
Result: 1.01

Ask: I have this compound here, CC(N)C(O)c1ccc(O)c(O)c1 (centres undefined) , and I need its recorded normalized growth.
Result: 0.993

Ask: I have this compound here, CC(=O)O[C@H]1CC[C@]2(C)C3CC[C@@]4(C)C(CC5O[C@@]6(CCC(C)CO6)[C@@H](C)C54)C3CC[C@@H]2C1 (some centres undefined) , and I need its recorded normalized growth.
Result: 0.987

Ask: I have this compound here, CC1(C)S[C@@H]2[C@H](NC(=O)Cc3ccccc3)C(=O)N2[C@H]1C(=O)O , and I need its recorded normalized growth.
Result: 1.01

Ask: I have this compound here, CCC(C)C(N)C1=NC(C(=O)NC(CC(C)C)C(=O)NC(CCC(=O)O)C(=O)NC(C(=O)NCCCCC2NC(=O)C(CC(N)=O)NC(=O)C(CC(=O)O)NC(=O)C(Cc3cnc[nH]3)NC(=O)C(Cc3ccccc3)NC(=O)C(C(C)CC)NC(=O)C(CCCN)NC2=O)C(C)CC)CS1 (stereo not drawn) (cyclo(DNK([Ile-Glu-Leu-X1])[Orn]IFH); configuration not given here) , and I need its recorded normalized growth.
Result: 1

Ask: I have this compound here, Cc1onc(-c2ccccc2)c1C(=O)NC1C(=O)N2[C@@H]1SC(C)(C)[C@@H]2C(=O)O (some centres undefined) , and I need its recorded normalized growth.
Result: 1.01

* * *

test: chemical genetic growth profiling, strain panel (AID 1159580);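 also: tested at 20 µM; growth read once vehicle control cultures reached saturation at 30 °C; 1 = growth at the plate median or of vehicle wells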; details: S. cerevisiae deletion strains, growth OD, locus YNL153C, strain GIM3, stronger effect = lower value
Out of some 5,500 compounds screened, about 2,000 (36%) were called active. Another 18% or so got no clear call; they are omitted. The list shows a part of the results. Where a SMILES comes first, the peptide text is derived from it. Bridges are numbered along the chain shown (N, C = ends). [ ]: non-standard residue; d: D form. The star is where a group is joined. Octanoyl(6-Me) = CCC(C)CCCCC(=O)*; Dab = NCC[CH](N)C(=O)O
Quantity Name: normalized growth
The answer should be written as a number, with no unit following it.

{"Compound": "CC(=O)OCC1=C(C(=O)O)N2C(=O)[C@@H](NC(=O)CCCC(N)C(=O)O)C2SC1 (some centres undefined)", "normalized growth": 1.03}

Ask: I have this compound here, CCC(C)CCCCC(=O)NC(CCN)C(=O)NC(C(=O)NC(CCN)C(=O)NC1CCNC(=O)C(C(C)O)NC(=O)C(CCN)NC(=O)C(CCN)NC(=O)C(CC(C)C)NC(=O)C(Cc2ccccc2)NC(=O)C(CCN)NC1=O)C(C)O (centres undefined) ({Octanoyl(6-Me)}-[Dab]T[Dab][Dab][Dab]FL[Dab][Dab]T; lactam 4-C; configuration not given here) , and I need its recorded normalized growth.
Result: 1.02

Ask: I have this compound here, N[C@@H](CCl)C(=O)O , and I need its recorded normalized growth.
Result: 1.05

Ask: I have this compound here, CCNc1nc(Cl)nc(NCC)n1 , and I need its recorded normalized growth.
Result: 0.985
